tested on: SF-539 CNS; assay: NCI tumour cell line growth inhibition, 48 h; in the data active means GI50 below about 0.43 µM; inactive means the rest
Classes used: active, inactive

compound | assigned-class
CC(=O)[CH-]C(=O)c1ccccc1.CC(=O)[CH-]C(=O)c1ccccc1.[CH2-]CCC.[CH2-]CCC.[Sn+4] | inactive
CCc1cccc(CC)c1/C=C/c1cncc(C(=O)NC)c1 | inactive
Nc1ccn([C@@H]2C(F)=C(CO)[C@@H](O)[C@H]2O)c(=O)n1 | inactive
NC(=O)c1cc(I)ccc1NC(=O)COc1ccccc1 | active
COc1ccc(NC(=O)c2sc3nc4c(cc3c2N)CCCC4)cc1 | active
Oc1[nH]c2ccccc2c1/C=c1/cc2c(c(-c3ccc(C(F)(F)F)cc3)n1)=Nc1ccccc1-2 | inactive
CN(C)CCCC1(c2ccc(F)cc2)OCc2cc(-c3cncc4ccccc34)ccc21 (centres undefined) | inactive
O=C(Nc1ccccc1O)c1ccc(CNC(=O)c2ccsc2Nc2ccnc(C(F)(F)F)c2)cc1 | inactive
COc1ccc(C(=O)C[C@]2(O)C(=O)Nc3c(Cl)ccc(Cl)c32)cc1 | inactive

----------
tested on: IGROV1 ovarian; experiment: NCI tumour cell line growth inhibition, 48 h
measurement-name: TGI

compound | measurement-name | result
COc1cc(O)c(C(C)=O)c(O)c1 | TGI | > 100 µM
CC12CC(C/C1=N/O)C(C)(C)C2 (stereo unspecified) | TGI | > 100 µM
O=C(/C=C/c1cn(-c2ccccc2)nc1-c1ccc([N+](=O)[O-])cc1)c1ccc(Cl)cc1 | TGI | > 100 µM
CC1(C)COC(c2c(-c3ccccc3)noc2CS(=O)c2ccccc2)=N1 (stereo unspecified) | TGI | > 100 µM
CCOC1=C2NC(Cc3ccc(F)cc3)=NC2C(=O)c2ccccc21 (stereo unspecified) | TGI | > 100 µM
O=C(Nc1ccc(Cl)cc1)Nc1ccccc1CNc1nc(Nc2ccc(OCCN3CCCC3)cc2)ncc1Cl | TGI | 5.72 µM

----------
Reported TGI by item:
tested on: NCI/ADR-RES ovarian; test: NCI tumour cell line growth inhibition, 48 h

compound | TGI
Cc1c2cccc-2ccc2c1[nH]c1ccccc12 | > 27.3 µM
O=S1(=O)CCN(c2ccccc2CC(c2c[nH]c3ccccc23)c2c[nH]c3ccccc23)CC1 | 38.7 µM
COc1ccc(C=Nc2ccc(-c3nc4ccccc4[nH]3)cc2)cc1OC | > 100 µM
COc1ccc(/C=C/C(=O)C(C)(C)Br)cc1 | > 100 µM
CC1=C2C(=O)c3ccccc3C(=O)[C@H]2C[C@@H](N2CCCCCC2=O)O1 | 49.8 µM
CC(C)=CCC[C@@H](C)c1c2[nH]c3ccccc3sc-2c(C)c(=O)c1=O | 12.1 µM
COc1cccc(CN(C(=O)/C=C\Sc2ccccc2)C(C)(C)C)c1 | > 100 µM
COc1ccc(-c2cc(/C=C/C(=O)c3cc(OC)c(OC)c(OC)c3)[nH]n2)cc1OC | 37 µM
CC(C)(C)c1ccc(-c2nnc(-c3cc(C#N)cc(-c4nnc(-c5ccc(C(C)(C)C)cc5)o4)c3)o2)cc1 | > 100 µM
CC12OC(C(=O)C13CCC3)C1C(=O)c3ccccc3C(=O)C12 (stereo unspecified) | > 100 µM
Nc1ncc(/C=N/O)c(NCC2(CO)CC(CCc3ccccc3)C2)n1 (stereo unspecified) | 70.6 µM
CC1=C2NCN(C)N=C2C(C#N)(C#N)C1(C#N)C#N | > 68.5 µM
Cn1cnc([N+](=O)[O-])c1Sc1nc(N)nc2nc[nH]c12 | > 100 µM
COc1cc([C@H]2c3[nH]c4ccccc4c3C[C@H]3COC(=O)N32)cc(OC)c1O | > 100 µM
CCN1C(=O)CS/C1=N/NC(=O)C(O)(c1ccccc1)C1C=CC=CC1 (stereo unspecified) | > 10 µM
O=C1CC2(CCNCC2)C(=O)N1N1CCOCC1 | > 100 µM

----------
system: OVCAR-3 ovarian; assay: NCI tumour cell line growth inhibition, 48 h
measurement-name: GI50

compound | result
C[C@@H]1C/C=C\C(=O)O[C@H](/C=C/C#C/C=C/C(C)(C)[C@@H](O)c2cccc(O)c2Br)[C@@H](C)/C=C/[C@H](C)C[C@H](OC(N)=O)C1 | 0.0636 µM
Cc1ccc(-n2c3c(c4c(CN5CCOCC5)c(O)ccc42)CCc2ccccc2C3=O)cc1 | 71.2 µM
CN(C)C(=O)SC1=C(c2c(Cl)cccc2Cl)C(=O)c2ccccc21 | 1.96 µM
O=c1oc2ccc(F)cc2c(=O)n1-c1ccc(Br)cc1F | 0.436 µM
COc1ccc(C2ONC3=NCCN32)cc1 (stereo unspecified) | 35.2 µM
CC(=O)[CH-]C(=O)c1ccccc1.CC(=O)[CH-]C(=O)c1ccccc1.[CH2-]CCC.[CH2-]CCC.[Sn+4] | 1.3 µM

----------
tested on: SN12C renal; experiment: NCI tumour cell line growth inhibition, 48 h

molecule-smiles | TGI
O=[N+]([O-])c1ccc(NS(=O)(=O)C(F)(F)F)cc1 | > 100 µM
O=C1CC2(CCNCC2)C(=O)N1N1CCOCC1 | > 100 µM
CCCCCCCCCCCCCCCCS(=O)(=O)c1ccc(NN)cc1 | > 10 µM
COc1cc2nnn3c4ncccc4c(N=O)c3c2cc1OC | > 100 µM
O=C(CSc1nc2ccc(I)cc2c(=O)n1Cc1ccccc1)NN1C(=O)CCC1=O | > 100 µM

----------
tested on: MALME-3M melanoma; experiment: NCI tumour cell line growth inhibition, 48 h
Let's look at some compounds and their measured TGI.
measurement-name: TGI

compound | result
NC(=O)c1c[se]c(C2OC(COP(=O)(O)CP(=O)(O)OCC3OC(n4cnc5c(N)ncnc54)C(O)C3O)C(O)C2O)n1 (centres undefined) | > 100 µM
O=C1OI(C#Cc2ccccc2)c2ccccc21 | 5.64 µM
COc1cc2nnn3c4ncccc4c(N=O)c3c2cc1OC | 17.2 µM
COc1ccc(C(=O)C[C@]2(O)C(=O)Nc3c(Cl)ccc(Cl)c32)cc1 | > 100 µM
Cc1ccc(S(=O)(=O)N/N=C2\C3CC4CC(C3)C2C4)cc1 (centres undefined) | > 100 µM
CCC(=O)c1cc([N+](=O)[O-])c(Br)s1 | 3.87 µM
CCCCCCCCCC(=O)Oc1cccc2onc(C)c12 | > 100 µM
CNc1ccc(Cl)cc1S(=O)(=O)c1ccccc1[N+](=O)[O-] | > 100 µM
CC12OC(C(=O)C13CCC3)C1C(=O)c3ccccc3C(=O)C12 (centres undefined) | > 100 µM
COC(=O)/C=C/c1ccc2c(c1)CC1(Cc3ccccc3C1)C2 | > 100 µM
O=[N+]([O-])C1C2C=CC(C2)[C@H]1c1ccc(Cl)cc1Cl (some centres undefined) | > 100 µM
COc1ccc2[nH]c3c(=O)[nH]ncc3c2c1 | > 100 µM
CCOC(=O)c1nc2ccccc2nc1NCc1ccc(Cl)cc1Cl | > 100 µM
Cn1c(=O)sc2cc(C(=S)N3CCOCC3)ccc21 | > 100 µM
CC1(C)C2CCC13C(=O)C1OC3(C2)C2C(=O)c3c(O)cccc3C(=O)C12 (centres undefined) | 1.02 µM
Oc1[nH]c2ccccc2c1/C=c1/cc2c(c(-c3ccc(C(F)(F)F)cc3)n1)=Nc1ccccc1-2 | 27.4 µM
C/C(=N\n1c(N)c(C#N)c(-c2ccc(Cl)cc2)c(C#N)c1=O)c1ccncc1 | > 100 µM
CCOC(=O)/C(C#N)=C/N(CC)/N=C/c1ccccc1 | > 100 µM
COC(=O)c1cc2c3c(ccc2[nH]1)N(C(=O)c1cc2c4c(ccc2[nH]1)N(C(=O)c1cc2c5c(ccc2[nH]1)N(C(N)=O)CC5)CC4)CC3 | > 24.2 µM
Cc1cc2n([O-])cccc-2[n+](=O)c1 | > 100 µM
C/C(=N\Nc1ccccc1)C(CN(C)C)C(c1ccccc1)c1c(O)c2ccccc2oc1=O (centres undefined) | > 100 µM
CCN(CC)CCN(C)CCc1ccc(Br)cc1 | > 100 µM
CC(C)C1CC(CO)(CNc2cc(Cl)nc(N)n2)C1 (centres undefined) | > 100 µM
COc1cc2cccc(N=Cc3c(Br)ccc(OC)c3OC(C)C)c2cc1OC | > 100 µM
COc1cc(-n2cc(-c3cc(O)c(C/C=C(\C)CCC=C(C)C)c(O)c3)nn2)cc2c1O[C@]1(C)CC[C@@H](O)C(C)(C)[C@H]1C2 | 8.4 µM
CC(=O)Nc1ccc(C(=O)N2N=C(C)/C(=C/c3ccc(O)cc3)C2=O)cc1 | > 100 µM
CC(=O)NC1=C(NCC(C)C)C(=O)c2ccccc2C1=O | 34.2 µM
CN(C)C(=O)SC1=C(c2c(Cl)cccc2Cl)C(=O)c2ccccc21 | 3.74 µM
[N-]=[N+]=C(C(=O)C(=[N+]=[N-])C(=O)c1ccccc1)C(=O)c1ccccc1 | > 100 µM
